These measurements were taken from the supplement of paper PMC6555819.

system: PPARg DBDmut:RXRa IVT, anti-PPARg (DBD mutation: PPARg1 K132A/R137A, NR concentration 270 nM, RXRa partner concentration 90 nM); assay: PBM binding z-score (relative to random genomic background probes); higher = stronger binding; sequences stand for … in GC…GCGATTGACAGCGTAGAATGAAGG
Lab note: class by PBM binding z-score, see one (below 0.2), two (0.2 to below 0.7), three (0.7 or more)

Known results for sequences:
> print(dat)
                     ordered.residues  answer.label
1  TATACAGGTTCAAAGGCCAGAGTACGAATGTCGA           two
2  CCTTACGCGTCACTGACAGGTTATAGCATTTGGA           two
3  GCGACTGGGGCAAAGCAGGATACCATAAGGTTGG           one
4  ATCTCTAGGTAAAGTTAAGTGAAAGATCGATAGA         three
5  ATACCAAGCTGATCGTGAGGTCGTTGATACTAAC           two

Note: place this sequence into its band. Item: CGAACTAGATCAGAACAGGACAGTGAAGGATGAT one

Note: place this sequence into its band. Item: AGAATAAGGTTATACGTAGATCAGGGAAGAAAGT three

Note: place this sequence into its band. Item: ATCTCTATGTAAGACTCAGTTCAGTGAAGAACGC two

* * *

tested on: PPARa:RXRa (NR concentration 270 nM, RXRa partner concentration 90 nM); test: PBM binding z-score (relative to random genomic background probes); higher = stronger binding; sequences stand for … in GC…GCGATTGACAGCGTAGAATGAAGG
Known PBM binding z-score of a selection of sequences
Write the value as a bare number.

> print(dat)
                     ordered.residues    measured.endpoint  recorded.measurement
1  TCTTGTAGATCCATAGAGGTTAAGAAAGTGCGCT  PBM binding z-score                  1.16
2  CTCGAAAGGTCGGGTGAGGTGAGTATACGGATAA  PBM binding z-score                  3.49
3  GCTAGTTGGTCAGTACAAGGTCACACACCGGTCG  PBM binding z-score                  3.05

We now examine a further sequence.
Data point: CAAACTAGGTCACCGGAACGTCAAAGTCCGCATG ; PBM binding z-score = 5.75

* * *

Known PBM binding z-score of a selection of sequences
tested on: THRa homodimer (NR concentration 90 nM); assay: PBM binding z-score (relative to random genomic background probes); higher = stronger binding; sequences stand for … in GC…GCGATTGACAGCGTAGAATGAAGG

> print(dat)
                     ordered.residues  recorded.measurement
1  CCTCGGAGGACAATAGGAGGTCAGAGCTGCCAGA                 0.711
2  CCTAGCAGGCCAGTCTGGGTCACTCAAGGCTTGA                 0.462
3  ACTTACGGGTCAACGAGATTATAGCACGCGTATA                 0.499
4  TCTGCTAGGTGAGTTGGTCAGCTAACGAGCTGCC                -0.955

Data point: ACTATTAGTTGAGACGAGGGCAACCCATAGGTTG ; PBM binding z-score = 0.54
